# EXPERIMENT_NOTES: protein stability index of a GFP-peptide fusion (GPS, HEK-293T) (PSI 1-6); higher = more stable;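 note: 24-mer peptide tiles fused after GFP, lentivirally expressed, FACS-sorted into six equal bins by GFP/DsRed ratio, decoded by Illumina sequencing, PSI is the read-weighted mean bin number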
# DETAILS: treatment: DMSO; c terminus: a fixed tail appended
Entries and their measured protein stability index follow.

Lookup: Record request: protein stability index value, item LLNTDLHGHNIGKKMSCQQFIANL [PSD2]
Found: 2.24

* * *

# EXPERIMENT_NOTES: protein stability index of a GFP-peptide fusion (GPS, HEK-293T) (PSI 1-6); higher = more stable
# DETAILS: treatment: MLN4924 1 uM, 8 h; c terminus: a fixed tail appended
METRIC: protein stability index
Output: the number by itself.

{"columns": ["POLYMER_SEQUENCE", "protein stability index"],
 "data": [
  ["IHDALLEAVTCGNTEVPARNLYAY [PTPRD]", 2.39]
]}

Lookup: Item GLLWLLLGSAGAQYEKYSFRGFPP [P3H4] has what recorded protein stability index?
Found: 3.71

Lookup: Please report the recorded protein stability index for FTRNEFNLESKSTIGVEFATRSIQ [RAB11A] .
Found: 3.2

Lookup: What value of measured protein stability index is listed for PGRGVYLLKFDNSYSLWRSKSVYY [ACBD3] ?
Found: 2.69

* * *

# EXPERIMENT_NOTES: protein stability index of a GFP-peptide fusion (GPS, HEK-293T) (PSI 1-6); higher = more stable
# DETAILS: treatment: DMSO; c terminus: a fixed tail appended
# if value of protein stability index reaches 4, tag Yes; if it stays below, tag No

Past entries and their recorded results:
{"columns": ["POLYMER_SEQUENCE", "CATEGORY_LABEL"],
 "data": [
  ["AQEVRPRRWKLQVLDLRKNSHQDF [PRAME]", "No"],
  ["AWKHGNIHLSAPCIYSEVMEALDL [PCMTD2]", "No"]
]}

Lookup: Has TPEAKDLINKMLTINPSKRITAAE [CAMK2A] a recorded protein stability index greater than or equal to 4?
Found: Yes

Lookup: Please indicate if the recorded protein stability index for EPAPGSALSPAGVCGGAQRPGHLP [CDC25B] meets or exceeds 4.
Found: Yes

Lookup: Assess whether reported protein stability index for TILNVRDPTGASIALFTARLHHPH [PTPN9] sits at 4 or higher.
Found: No

* * *

# EXPERIMENT_NOTES: protein stability index of a GFP-peptide fusion (GPS, HEK-293T) (PSI 1-6); higher = more stable
# DETAILS: treatment: DMSO; c terminus: a fixed tail appended
METRIC: protein stability index
Give the figure by itself; no unit, no explanation.

Field: example entries. Status: answers known.
{"columns": ["POLYMER_SEQUENCE", "METRIC", "MEASURED_VALUE"],
 "data": [
  ["LLGSSTACIVVLDRTSHRLHTANL [PPTC7]", "protein stability index", 2.66],
  ["QGSQASQAPPVPGPPPGAPHTPQT [NR2F2]", "protein stability index", 5.13],
  ["ANAAKHTQDSARVNPQDGTNTLTR [EHMT1]", "protein stability index", 5.13]
]}

Lookup: # query: protein stability index of entry PPPVESELALFQMSVLWLEHDRET [KLHL14]
Found: 3.18

Lookup: // returns reported protein stability index for input AMELKVEDPFYWVSPGVLVLLAVL [MOG]
Found: 2.8

Lookup: For the sequence ELSNILNLSYKQVKTWFQNQRMKS [NANOGP8] , what protein stability index is on record?
Found: 2.63

Lookup: Endpoint output: protein stability index of QRPRFITSGGSNIIYVASNHFVWR [VPS39] . Value?
Found: 2.12

Lookup: Name the reported protein stability index value associated with the sequence YRFRMKCHLCVNYIEMQTDPANCD [YJU2B]
Found: 2.3

Lookup: Requested read-out: protein stability index. Entry: SGACGAFVHGLEDEMYEVRIAAVE [INTS4]
Found: 2.71

Lookup: Sample GFEESEPLTGFLTTVPDGPTQLRA [TNXB] — what was its protein stability index?
Found: 4.44

Lookup: # lookup: protein stability index of PDLVKGPWTKEEDQKVIELVKKYG [MYBL2]
Found: 3.86

Lookup: Name the reported protein stability index value associated with the sequence HNNNNNCEENEQSLPPPAGLNSSW [BNIP3L]
Found: 4.96

Lookup: Field request: protein stability index | item: HEGKTDSERTDTAADGETTATEEL [EPB41L3]
Found: 5.65

This collection of values is drawn from the supplement of paper PMC10567573.
